- experimental-system: HLA-A*02:01
- assay-comment: IEDB peptide-MHC binding, purified MHC/competitive/fluorescence; filed as Kd, often an IC50 or EC50 that approximates it; bounds were set here for any values at or beyond the usual limits of such assays
- run-conditions: source organism: Horsepox virus
pKd: −log10 of the molar value.
measure-name: pKd

**Q:** Using known records, supply pKd for `LLFLEDVEP`
**A:** ≤ 4.70

###

- experimental-system: HLA-A*24:03
- assay-comment: IEDB peptide-MHC binding, purified MHC/direct/fluorescence; filed as Kd, often an IC50 or EC50 that approximates it; bounds were set here for any values at or beyond the usual limits of such assays
- run-conditions: source organism: Escherichia coli O157:H7
measure-name: Kd

**Q:** Report its Kd with HLA-A*24:03 as the test system: `ITAGYNRYY`
**A:** ≥ 20 µM
